Reported residual activity values for the following compounds.
Target: Mitogen-activated protein kinase 10 (Homo sapiens) (UniProt P53779)
Sequence (P53779 whole entry): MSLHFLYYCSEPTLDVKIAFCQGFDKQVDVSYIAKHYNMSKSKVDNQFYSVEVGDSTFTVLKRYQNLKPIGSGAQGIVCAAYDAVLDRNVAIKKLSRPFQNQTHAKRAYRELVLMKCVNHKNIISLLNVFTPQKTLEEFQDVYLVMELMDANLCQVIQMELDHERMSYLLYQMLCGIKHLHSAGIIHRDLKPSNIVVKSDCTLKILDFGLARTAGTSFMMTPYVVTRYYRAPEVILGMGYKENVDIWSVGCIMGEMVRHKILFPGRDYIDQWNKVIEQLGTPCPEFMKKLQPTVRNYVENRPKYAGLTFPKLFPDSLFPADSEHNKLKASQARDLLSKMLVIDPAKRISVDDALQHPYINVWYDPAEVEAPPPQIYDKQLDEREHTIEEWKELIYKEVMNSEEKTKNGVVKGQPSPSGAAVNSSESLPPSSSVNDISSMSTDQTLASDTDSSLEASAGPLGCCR
Details: at 10 µM
MEASURE: residual activity (%)

| COMPOUND | RESULT_VALUE |
| --- | --- |
| O=C1NC(=O)/C(=C\c2ccc3nccnc3c2)S1 | 104 |
| Nc1nc(Nc2ccc(S(N)(=O)=O)cc2)nn1C(=S)Nc1c(F)cccc1F | 3 |
| NC(=O)c1ccc2[nH]c(-c3ccc(Oc4ccc(Cl)cc4)cc3)nc2c1 | 98 |
| Cc1nc(-c2ccccc2)c(-c2ccncc2)o1 | 19 |
| CN(C)c1ccc(/C=C2\C(=O)Nc3ccccc32)cc1 | 106 |
| O=C1NC(=O)c2c1c1c3ccccc3[nH]c1c1[nH]c3cc(Br)ccc3c21 | 67 |
| CC(C)n1cnc2c(NCc3ccccc3)nc(NCCCO)nc21 | 58 |
| CC(C)n1cnc2/c(=N/c3cccc(Cl)c3)nc(NCCO)[nH]c21 | 60 |
| O=c1cc(-c2cccc3c2Sc2ccccc2S3)oc(N2CCOCC2)c1 | 89 |
| COc1ccc(CNc2nc(N(CCO)CCO)nc3c2ncn3C(C)C)cc1 | 70 |
| CCC(=O)Nc1ccc2ncnc(Nc3cccc(Br)c3)c2c1 | 37 |
